Listed below: PBM binding z-score values for each entry.
System: PXR:RXRa (NR concentration 270 nM, RXRa partner concentration 90 nM)
method description: PBM binding z-score (relative to random genomic background probes); higher = stronger binding; sequences stand for … in GC…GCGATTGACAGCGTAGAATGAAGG
Lab note: jot the number down without any unit.

record sequence	PBM binding z-score
ACTAGCAGGCCAAAGGTCACTCAAGATTAGTCCG	5.11

Shift focus to the following entry.
Q. What is its PBM binding z-score for PXR:RXRa (NR concentration 270 nM, RXRa partner concentration 90 nM)? Entry: ATCGAAACGTCGACGAGGTGAGTATACACCGTTT
A. -0.346

###

Test system: LXRa homodimer (NR concentration 270 nM)
method description: PBM binding z-score (relative to random genomic background probes); higher = stronger binding; sequences stand for … in GC…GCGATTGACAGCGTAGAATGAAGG
PBM binding z-score below 0.2 gives 0.0; PBM binding z-score at or above it gives 1.0.

Q. Decide: is the reported value of PBM binding z-score for ATATGTAGGTTAGGGTCATTGAGAAAGTAGGGAA equal to or greater than 0.2?
A. 1.0

Q. Decide: is the reported value of PBM binding z-score for CCGACTGGGGCAAAGGTTACGATACTCAGTACGA equal to or greater than 0.2?
A. 0.0

Q. Decide: is the reported value of PBM binding z-score for CCTAGTTGGTCAAGGTAACACACGCTATAGGTAC equal to or greater than 0.2?
A. 1.0

Q. Decide: is the reported value of PBM binding z-score for CCAGACAGGTGAAAGGTAACTCCGTCTGGTACGC equal to or greater than 0.2?
A. 0.0

Q. Decide: is the reported value of PBM binding z-score for ATAGGTAGGTTAGGGTCATTCAGAAAGTAGGGAA equal to or greater than 0.2?
A. 1.0

Q. Decide: is the reported value of PBM binding z-score for TTACGAAGGTGAAAGGTCGTTGATGCACGCCTTG equal to or greater than 0.2?
A. 1.0

Q. Decide: is the reported value of PBM binding z-score for CAAAGTAGGTCACGAAAGGTCAAAGTCGAATGAC equal to or greater than 0.2?
A. 1.0

Q. Decide: is the reported value of PBM binding z-score for CGTCGGAGGACAACAGGAGGTCAGAGCTGCCAGA equal to or greater than 0.2?
A. 1.0

Q. Decide: is the reported value of PBM binding z-score for TCTAGTTCGTCACGGAGGTCACACACGACGGGTA equal to or greater than 0.2?
A. 1.0

Q. Decide: is the reported value of PBM binding z-score for ATATGTAGGTTAGCTGGCGTCATTCAGACTAGGC equal to or greater than 0.2?
A. 0.0

Q. Decide: is the reported value of PBM binding z-score for CGTCTAAGGTCAGCAGGTCAGTGAAAGCGACGTG equal to or greater than 0.2?
A. 1.0

Q. Decide: is the reported value of PBM binding z-score for TCTTGTAGATCAAAGGTTAAGACAGCCGAAGCCT equal to or greater than 0.2?
A. 1.0

Q. Decide: is the reported value of PBM binding z-score for ATATGTAGCTTAGGGTCATTCAGAAAGTAGGGAA equal to or greater than 0.2?
A. 1.0

Q. Decide: is the reported value of PBM binding z-score for CTCCAAAGGTCGGTTGAGGTGAGTATACGGATAA equal to or greater than 0.2?
A. 0.0

Q. Decide: is the reported value of PBM binding z-score for CGAACTAGGTCACTAGGACAGTGAAGAGGTTGGA equal to or greater than 0.2?
A. 0.0

Q. Decide: is the reported value of PBM binding z-score for TCTAGCAGGCCATAGGGTCACTCAAGAGGTACGG equal to or greater than 0.2?
A. 0.0

Q. Decide: is the reported value of PBM binding z-score for CGAACTAGGTCACCCGGACAGTGAAGAGGTTGGA equal to or greater than 0.2?
A. 0.0

Q. Decide: is the reported value of PBM binding z-score for GATAAAGGGTCAGCTAGAGGCCAGAGTATGGAAA equal to or greater than 0.2?
A. 0.0

Values from the supplement of paper PMC6555819
